From: paper PMC8915576

Target: MOPr (mMOR-Venus) / Gαi-luciferase (Mus musculus)
Sequence (P63096 whole entry, one chain of several): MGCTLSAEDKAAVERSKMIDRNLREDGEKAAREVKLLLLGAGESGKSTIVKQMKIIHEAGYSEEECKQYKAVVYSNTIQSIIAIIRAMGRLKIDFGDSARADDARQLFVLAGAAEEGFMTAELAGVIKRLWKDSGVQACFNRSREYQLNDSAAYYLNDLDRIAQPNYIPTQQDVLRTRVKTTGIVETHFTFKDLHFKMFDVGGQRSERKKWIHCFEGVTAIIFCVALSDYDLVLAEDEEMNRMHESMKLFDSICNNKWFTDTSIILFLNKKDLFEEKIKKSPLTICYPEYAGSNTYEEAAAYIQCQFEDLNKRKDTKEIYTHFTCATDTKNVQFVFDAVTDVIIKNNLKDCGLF
Sequence (P59768 whole entry, one chain of several, further chain): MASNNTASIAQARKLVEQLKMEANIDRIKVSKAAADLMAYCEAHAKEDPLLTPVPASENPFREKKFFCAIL
Sequence (P62873 whole entry, one chain of several, further chain): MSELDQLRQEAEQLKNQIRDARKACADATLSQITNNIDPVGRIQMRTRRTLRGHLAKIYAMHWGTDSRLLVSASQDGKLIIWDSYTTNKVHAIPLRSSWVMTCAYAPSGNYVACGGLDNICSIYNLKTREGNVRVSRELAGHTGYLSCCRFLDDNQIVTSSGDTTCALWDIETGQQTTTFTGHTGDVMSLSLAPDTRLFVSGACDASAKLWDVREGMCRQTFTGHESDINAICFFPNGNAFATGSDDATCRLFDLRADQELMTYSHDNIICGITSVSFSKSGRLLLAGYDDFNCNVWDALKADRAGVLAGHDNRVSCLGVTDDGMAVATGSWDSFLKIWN
Assay: cell-based
pEC50: −log10 of the molar value.
measured-property: pEC50

{"columns": ["compound", "measured-property", "recorded-number"],
 "data": [
  ["COc1ccc2c3c1O[C@H]1C(=O)CC[C@@]4(O)[C@@H](C2)N(C)CC[C@]314 [Oxycodone, oxycodone]", "pEC50", 6.45]
]}

###

Target: MOPr (mMOR-Venus) / βarr2-luciferase (Mus musculus, UniProt P42866)
Sequence (P32121 whole entry): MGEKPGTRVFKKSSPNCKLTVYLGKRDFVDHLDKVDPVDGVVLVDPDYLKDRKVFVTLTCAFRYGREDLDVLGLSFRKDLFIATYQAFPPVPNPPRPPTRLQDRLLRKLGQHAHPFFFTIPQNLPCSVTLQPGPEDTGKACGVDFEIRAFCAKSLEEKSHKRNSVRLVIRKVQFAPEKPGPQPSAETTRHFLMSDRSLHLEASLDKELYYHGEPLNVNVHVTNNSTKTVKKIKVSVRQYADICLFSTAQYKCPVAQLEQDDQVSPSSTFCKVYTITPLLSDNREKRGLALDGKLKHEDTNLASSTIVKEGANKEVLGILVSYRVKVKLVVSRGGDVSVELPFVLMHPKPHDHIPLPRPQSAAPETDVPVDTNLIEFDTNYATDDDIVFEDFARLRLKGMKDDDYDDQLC
Sequence (P42866 whole entry): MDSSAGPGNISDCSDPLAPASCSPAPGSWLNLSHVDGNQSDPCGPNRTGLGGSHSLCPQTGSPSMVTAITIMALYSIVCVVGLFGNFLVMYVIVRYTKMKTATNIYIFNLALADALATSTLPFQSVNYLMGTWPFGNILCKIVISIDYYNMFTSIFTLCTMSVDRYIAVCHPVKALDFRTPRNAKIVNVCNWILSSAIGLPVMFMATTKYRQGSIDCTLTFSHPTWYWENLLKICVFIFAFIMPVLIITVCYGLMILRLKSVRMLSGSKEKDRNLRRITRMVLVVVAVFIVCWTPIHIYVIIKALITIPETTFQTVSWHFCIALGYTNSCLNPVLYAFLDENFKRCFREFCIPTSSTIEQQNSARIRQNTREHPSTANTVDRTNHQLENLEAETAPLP
Assay: cell-based
pEC50: −log10 of the molar value.

{"columns": ["compound", "assay-target", "pEC50"],
 "data": [
  ["COc1ccc2c3c1O[C@H]1C(=O)CC[C@@]4(O)[C@@H](C2)N(C)CC[C@]314", "MOPr (mMOR-Venus) / βarr2-luciferase (Mus musculus, UniProt P42866)", 7.00]
]}
